Test system: STEME
TEST: Post-emergence action against STEME
Type: in vivo, Stellaria media
MEASUREMENT CONTEXT: post-emergence, dosage 80 g/ha
MEASURED PROPERTY: Post-emergence action against STEME

SMILES DATA	MEASURED PROPERTY	REPORTED
CCn1nnnc1NC(=O)c1ccc(C)c(C(=O)C2CC2)c1Cl	Post-emergence action against STEME	80
CCCC(=O)c1c(C(F)(F)F)ccc(C(=O)Nc2nnnn2CCC)c1C	Post-emergence action against STEME	90
CCCn1nnnc1NC(=O)c1ccc(C(F)(F)F)c(C(=O)C2CCC2)c1Cl	Post-emergence action against STEME	100
CCn1nnnc1NC(=O)c1ccc(C(F)(F)F)c(C(=O)C2CC2)c1SC	Post-emergence action against STEME	100
CCn1nnnc1NC(=O)c1ccc(C(F)(F)F)c(C(=O)C2CC2)c1C1CC1	Post-emergence action against STEME	90

Values compiled from patent US11051515B2.
